# experimentalDetails: Cytotoxicity against mouse Daltons ascitic lymphoma cells assessed as dead cells at 100 ug/ml after 3 hrs by trypan blue exclusion assay relative to control
# Format: functional
Param threshold (80%) applies to mortality at 100 µg/mL; output 1 (yes) when value >= threshold, 0 (no) when value < threshold.

COc1ccc(-c2cc(=O)n3c(n2)[nH]c2ccccc23)cc1: 0 (no)
O=c1cc(-c2ccc(F)cc2)nc2[nH]c3ccccc3n12: 1 (yes)
Oc1cc(-c2ccccc2)nc2nc3ccccc3n12: 0 (no)

# evaluate next
Query: Quick check: does CC(C)c1cc(=O)n2c3ccccc3n(Cc3cc(=O)oc4ccc(Br)cc34)c2n1 have mortality at 100 µg/mL greater than or equal to 80%?
Result: 0 (no)
